Test: Oral bioavailability in overnight fasted mouse at 10 mg/kg administered as single dose by LC-MS/MS analysis
Type: ADME, organism-based
Details: in vivo
measured metric: bioavailability (%)
Report the value in % with no unit label.

Prompt: Reported bioavailability for C[C@@H](Oc1ccc2[nH]nc(/C=C/c3cnn(CCNC(=O)CCCCCNc4ccc5c(c4)C(=O)N(C4CCC(=O)NC4=O)C5=O)c3)c2c1)c1c(Cl)cncc1Cl (stereo partly specified) : what is it?
Completion: 0.64

###

System: BaF3
Assay: Antiproliferative activity against mouse BaF3 cells stably expressing wild type ETV6-FGFR2 fusion protein incubated for 72 hrs by CCK-8 assay
Format: functional, cell-based
Details: BaF3, 72 h
measured metric: IC50 (nM)
Report the value in nM with no unit label.

Prompt: Reported IC50 for C[C@@H](Oc1ccc2[nH]nc(/C=C/c3cnn(CCNC(=O)CCCCCNc4ccc5c(c4)C(=O)N(C4CCC(=O)NC4=O)C5=O)c3)c2c1)c1c(Cl)cncc1Cl (stereo partly specified) : what is it?
Completion: 0.91
